Below: a set of entries, each annotated with reported tissue uptake at 1 h.
# Assay: in vivo
# Parameters: species or system mice
# Condition context: naked (nude), mouse, iv, 100 uCi, total radioactivity, % ID/g Muscle
Non-standard residues stand in square brackets, D forms with d. Residues, ends and D or L forms follow the SMILES beside them. *: point of attachment. DOTA = O=C(O)CN1CCN(CC(=O)O)CCN(CC(=O)*)CCN(CC(=O)O)CC1; Aib = CC(C)(N)C(=O)O; AEA = NCCOCC(=O)O

| Compound | tissue uptake at 1 h |
| --- | --- |
| CC[C@H](C)[C@H](NC(=O)C(C)(C)NC(=O)[C@H](CC(=O)O)NC(=O)[C@H](CC(N)=O)NC(=O)CN1CCN(CC(=O)O)CCN(CC(=O)O)CCN(CC(=O)O)CC1)C(=O)N[C@@H](CC(N)=O)C(=O)O [^68Ga-TM11, metal not drawn] ({DOTA}-ND[Aib]IN-OH) | 0.08 %ID/g |
| CC[C@H](C)[C@H](NC(=O)[C@@H](NC(=O)[C@H](CC(=O)O)NC(=O)[C@H](CC(N)=O)NC(=O)COCCNC(=O)CN1CCN(CC(=O)O)CCN(CC(=O)O)CCN(CC(=O)O)CC1)C(C)C)C(=O)N[C@@H](CC(N)=O)C(=O)O [^68Ga-TM13, metal not drawn] ({DOTA-AEA}-NDVIN-OH) | 0.05 %ID/g |

====

Below: a set of entries, each annotated with reported tissue uptake at 1 h.
# Assay: in vivo
# Set-up: species or system mice
# Condition context: M-NSG, mouse, iv, 100 uCi, total radioactivity, % ID/g Heart
Non-standard residues stand in square brackets, D forms with d. Residues, ends and D or L forms follow the SMILES beside them. *: point of attachment. DOTA = O=C(O)CN1CCN(CC(=O)O)CCN(CC(=O)*)CCN(CC(=O)O)CC1; PEG4 = NCCOCCOCCOCCOCCC(=O)O; Aib = CC(C)(N)C(=O)O; AEA = NCCOCC(=O)O
Reported endpoint: tissue uptake at 1 h (%ID/g)

| Compound | Numeric value |
| --- | --- |
| CC[C@H](C)[C@H](NC(=O)[C@@H](NC(=O)[C@H](CC(=O)O)NC(=O)[C@H](CC(N)=O)NC(=O)COCCNC(=O)CN1CCN(CC(=O)O)CCN(CC(=O)O)CCN(CC(=O)O)CC1)C(C)C)C(=O)N[C@@H](CC(N)=O)C(=O)O [^68Ga-TM13, metal not drawn] ({DOTA-AEA}-NDVIN-OH) | 0.49 |
| CC[C@H](C)[C@H](NC(=O)[C@@H](NC(=O)[C@H](CC(=O)O)NC(=O)[C@H](CC(N)=O)NC(=O)CN1CCN(CC(=O)O)CCN(CC(=O)O)CCN(CC(=O)O)CC1)C(C)C)C(=O)N[C@@H](CC(N)=O)C(=O)O [^68Ga-TM4, ^68Ga-DOTA-Asn-Asp-Val-Ile-Asn-OH, metal not drawn] ({DOTA}-NDVIN-OH) | 0.96 |
| CC[C@H](C)[C@H](NC(=O)[C@@H](NC(=O)[C@H](CC(=O)O)NC(=O)[C@H](CC(N)=O)NC(=O)[C@H](CC(=O)O)NC(=O)CNC(=O)[C@H](CCCNC(=N)N)NC(=O)CCOCCOCCOCCOCCNC(=O)CN1CCN(CC(=O)O)CCN(CC(=O)O)CCN(CC(=O)O)CC1)C(C)C)C(=O)N[C@@H](CC(N)=O)C(=O)O [^68Ga-TM7, metal not drawn] ({DOTA-PEG4}-RGDNDVIN-OH) | 0.5 |
| CC[C@H](C)[C@H](NC(=O)[C@@H](NC(=O)[C@H](CC(=O)O)NC(=O)[C@H](CC(N)=O)NC(=O)CCOCCOCCOCCOCCNC(=O)CN1CCN(CC(=O)O)CCN(CC(=O)O)CCN(CC(=O)O)CC1)C(C)C)C(=O)N[C@@H](CC(N)=O)C(=O)O [^68Ga-TM5, metal not drawn] ({DOTA-PEG4}-NDVIN-OH) | 0.45 |
| CC[C@H](C)[C@H](NC(=O)C(C)(C)NC(=O)[C@H](CC(=O)O)NC(=O)[C@H](CC(N)=O)NC(=O)CN1CCN(CC(=O)O)CCN(CC(=O)O)CCN(CC(=O)O)CC1)C(=O)N[C@@H](CC(N)=O)C(=O)O [^68Ga-TM11, metal not drawn] ({DOTA}-ND[Aib]IN-OH) | 0.53 |

====

Below: a set of entries, each annotated with reported tissue uptake at 1 h.
# Assay: in vivo
# Design: species or system mice
# Condition context: naked (nude), mouse, iv, 100 uCi, total radioactivity, % ID/g Liver
Non-standard residues stand in square brackets, D forms with d. Residues, ends and D or L forms follow the SMILES beside them. *: point of attachment. DOTA = O=C(O)CN1CCN(CC(=O)O)CCN(CC(=O)*)CCN(CC(=O)O)CC1; Aib = CC(C)(N)C(=O)O; AEA = NCCOCC(=O)O

| Compound | Display unit | tissue uptake at 1 h |
| --- | --- | --- |
| CC[C@H](C)[C@H](NC(=O)[C@@H](NC(=O)[C@H](CC(=O)O)NC(=O)[C@H](CC(N)=O)NC(=O)COCCNC(=O)CN1CCN(CC(=O)O)CCN(CC(=O)O)CCN(CC(=O)O)CC1)C(C)C)C(=O)N[C@@H](CC(N)=O)C(=O)O [^68Ga-TM13, metal not drawn] ({DOTA-AEA}-NDVIN-OH) | %ID/g | 0.3 |
| CC[C@H](C)[C@H](NC(=O)C(C)(C)NC(=O)[C@H](CC(=O)O)NC(=O)[C@H](CC(N)=O)NC(=O)CN1CCN(CC(=O)O)CCN(CC(=O)O)CCN(CC(=O)O)CC1)C(=O)N[C@@H](CC(N)=O)C(=O)O [^68Ga-TM11, metal not drawn] ({DOTA}-ND[Aib]IN-OH) | %ID/g | 0.15 |

====

Below: a set of entries, each annotated with reported tissue uptake at 1 h.
# Assay: in vivo
# Design: species or system mice
# Condition context: M-NSG, mouse, iv, 100 uCi, total radioactivity, % ID/g Muscle
Non-standard residues stand in square brackets, D forms with d. Residues, ends and D or L forms follow the SMILES beside them. *: point of attachment. DOTA = O=C(O)CN1CCN(CC(=O)O)CCN(CC(=O)*)CCN(CC(=O)O)CC1; PEG4 = NCCOCCOCCOCCOCCC(=O)O; Aib = CC(C)(N)C(=O)O
Reported endpoint: tissue uptake at 1 h (%ID/g)

| Compound | Numeric value |
| --- | --- |
| CC[C@H](C)[C@H](NC(=O)[C@@H](NC(=O)[C@H](CC(=O)O)NC(=O)[C@H](CC(N)=O)NC(=O)CCOCCOCCOCCOCCNC(=O)CN1CCN(CC(=O)O)CCN(CC(=O)O)CCN(CC(=O)O)CC1)C(C)C)C(=O)N[C@@H](CC(N)=O)C(=O)O [^68Ga-TM5, metal not drawn] ({DOTA-PEG4}-NDVIN-OH) | 0.21 |
| CC[C@H](C)[C@H](NC(=O)C(C)(C)NC(=O)[C@H](CC(=O)O)NC(=O)[C@H](CC(N)=O)NC(=O)CN1CCN(CC(=O)O)CCN(CC(=O)O)CCN(CC(=O)O)CC1)C(=O)N[C@@H](CC(N)=O)C(=O)O [^68Ga-TM11, metal not drawn] ({DOTA}-ND[Aib]IN-OH) | 0.31 |

====

# Assay: in vivo
# Set-up: species or system mice
# Condition context: M-NSG, mouse, iv, 100 uCi, total radioactivity, % ID/g Lung
Non-standard residues stand in square brackets, D forms with d. Residues, ends and D or L forms follow the SMILES beside them. *: point of attachment. DOTA = O=C(O)CN1CCN(CC(=O)O)CCN(CC(=O)*)CCN(CC(=O)O)CC1; PEG4 = NCCOCCOCCOCCOCCC(=O)O; Aib = CC(C)(N)C(=O)O; AEA = NCCOCC(=O)O
Below: a set of entries, each annotated with reported tissue uptake at 1 h.

| Compound | tissue uptake at 1 h, %ID/g |
| --- | --- |
| CC[C@H](C)[C@H](NC(=O)[C@@H](NC(=O)[C@H](CC(=O)O)NC(=O)[C@H](CC(N)=O)NC(=O)COCCNC(=O)CN1CCN(CC(=O)O)CCN(CC(=O)O)CCN(CC(=O)O)CC1)C(C)C)C(=O)N[C@@H](CC(N)=O)C(=O)O [^68Ga-TM13, metal not drawn] ({DOTA-AEA}-NDVIN-OH) | 0.32 |
| CC[C@H](C)[C@H](NC(=O)[C@@H](NC(=O)[C@H](CC(=O)O)NC(=O)[C@H](CC(N)=O)NC(=O)[C@H](CC(=O)O)NC(=O)CNC(=O)[C@H](CCCNC(=N)N)NC(=O)CCOCCOCCOCCOCCNC(=O)CN1CCN(CC(=O)O)CCN(CC(=O)O)CCN(CC(=O)O)CC1)C(C)C)C(=O)N[C@@H](CC(N)=O)C(=O)O [^68Ga-TM7, metal not drawn] ({DOTA-PEG4}-RGDNDVIN-OH) | 0.3 |
| CC[C@H](C)[C@H](NC(=O)[C@@H](NC(=O)[C@H](CC(=O)O)NC(=O)[C@H](CC(N)=O)NC(=O)CCOCCOCCOCCOCCNC(=O)CN1CCN(CC(=O)O)CCN(CC(=O)O)CCN(CC(=O)O)CC1)C(C)C)C(=O)N[C@@H](CC(N)=O)C(=O)O [^68Ga-TM5, metal not drawn] ({DOTA-PEG4}-NDVIN-OH) | 0.24 |
| CC[C@H](C)[C@H](NC(=O)[C@@H](NC(=O)[C@H](CC(=O)O)NC(=O)[C@H](CC(N)=O)NC(=O)CN1CCN(CC(=O)O)CCN(CC(=O)O)CCN(CC(=O)O)CC1)C(C)C)C(=O)N[C@@H](CC(N)=O)C(=O)O [^68Ga-TM4, ^68Ga-DOTA-Asn-Asp-Val-Ile-Asn-OH, metal not drawn] ({DOTA}-NDVIN-OH) | 0.47 |
| CC[C@H](C)[C@H](NC(=O)C(C)(C)NC(=O)[C@H](CC(=O)O)NC(=O)[C@H](CC(N)=O)NC(=O)CN1CCN(CC(=O)O)CCN(CC(=O)O)CCN(CC(=O)O)CC1)C(=O)N[C@@H](CC(N)=O)C(=O)O [^68Ga-TM11, metal not drawn] ({DOTA}-ND[Aib]IN-OH) | 0.31 |
